# test details: total protein half-life in vivo (active degradation + dilution); higher = more stable protein
# assay setup: wild type E. coli NCM3722; growth: P-lim chemostat; doubling time 12 h
reported metric: total protein half-life in vivo

Entry MNTPAQLSLPLYLPDDETFASFWPGDNSSLLAALQNVLRQEHSGYIYLWAREGAGRSHLLHAACAELSQRGDAVGYVPLDKRTWFVPEVLDGMEHLSLVCIDNIECIAGDELWEMAIFDLYNRILESGKTRLLITGDRPPRQLNLGLPDLASRLDWGQIYKLQPLSDEDKLQALQLRARLRGFELPEDVGRFLLKRLDREMRTLFMTLDQLDRASITAQRKLTIPFVKEILKL , total protein half-life in vivo reported as 10.6 h

Entry MIKSALLVLEDGTQFHGRAIGATGSAVGEVVFNTSMTGYQEILTDPSYSRQIVTLTYPHIGNVGTNDADEESSQVHAQGLVIRDLPLIASNFRNTEDLSSYLKRHNIVAIADIDTRKLTRLLREKGAQNGCIIAGDNPDAALALEKARAFPGLNGMDLAKEVTTAEAYSWTQGSWTLTGGLPEAKKEDELPFHVVAYDFGAKRNILRMLVDRGCRLTIVPAQTSAEDVLKMNPDGIFLSNGPGDPAPCDYAITAIQKFLETDIPVFGICLGHQLLALASGAKTVKMKFGHHGGNHPVKDVEKNVVMITAQNHGFAVDEATLPANLRVTHKSLFDGTLQGIHRTDKPAFSFQGHPEASPGPHDAAPLFDHFIELIEQYRKTAK [P0A6F1] , total protein half-life in vivo reported as 12.1 h

Entry MENIMNNPVIGVVMCRNRLKGHATQTLQEKYLNAIIHAGGLPIALPHALAEPSLLEQLLPKLDGIYLPGSPSNVQPHLYGENGDEPDADPGRDLLSMAIINAALERRIPIFAICRGLQELVVATGGSLHRKLCEQPELLEHREDPELPVEQQYAPSHEVQVEEGGLLSALLPECSNFWVNSLHGQGAKVVSPRLRVEARSPDGLVEAVSVINHPFALGVQWHPEWNSSEYALSRILFEGFITACQHHIAEKQRL , total protein half-life in vivo reported as 10.6 h

Entry MPIRVPDELPAVNFLREENVFVMTTSRASGQEIRPLKVLILNLMPKKIETENQFLRLLSNSPLQVDIQLLRIDSRESRNTPAEHLNNFYCNFEDIQDQNFDGLIVTGAPLGLVEFNDVAYWPQIKQVLEWSKDHVTSTLFVCWAVQAALNILYGIPKQTRTEKLSGVYEHHILHPHALLTRGFDDSFLAPHSRYADFPAALIRDYTDLEILAETEEGDAYLFASKDKRIAFVTGHPEYDAQTLAQEFFRDVEAGLDPDVPYNYFPHNDPQNTPRASWRSHGNLLFTNWLNYYVYQITPYDLRHMNPTLD , total protein half-life in vivo reported as 6.4 h

Entry MSNPILSWRRVRALCVKETRQIVRDPSSWLIAVVIPLLLLFIFGYGINLDSSKLRVGILLEQRSEAALDFTHTMTGSPYIDATISDNRQELIAKMQAGKIRGLVVIPVDFAEQMERANATAPIQVITDGSEPNTANFVQGYVEGIWQIWQMQRAEDNGQTFEPLIDVQTRYWFNPAAISQHFIIPGAVTIIMTVIGAILTSLVVAREWERGTMEALLSTEITRTELLLCKLIPYYFLGMLAMLLCMLVSVFILGVPYRGSLLILFFISSLFLLSTLGMGLLISTITRNQFNAAQVALNAAFLPSIMLSGFIFQIDSMPAVIRAVTYIIPARYFVSTLQSLFLAGNIPVVLVVNVLFLIASAVMFIGLTWLKTKRRLD [P0AFQ2] , total protein half-life in vivo reported as 12.6 h

----------
# test details: total protein half-life in vivo (active degradation + dilution); higher = more stable protein
# assay setup: E. coli NCM3722 delta-clpP; growth: N-lim chemostat; doubling time 6 h
Parameter threshold = 4 h. Response is Criterion met when total protein half-life in vivo meets or exceeds it, else Criterion not met.

query: Test whether the sequence MTIAIVIGTHGWAAEQLLKTAEMLLGEQENVGWIDFVPGENAETLIEKYNAQLAKLDTTKGVLFLVDTWGGSPFNAASRIVVDKEHYEVIAGVNIPMLVETLMARDDDPSFDELVALAVETGREGVKALKAKPVEKAAPAPAAAAPKAAPTPAKPMGPNDYMVIGLARIDDRLIHGQVATRWTKETNVSRIIVVSDEVAADTVRKTLLTQVAPPGVTAHVVDVAKMIRVYNNPKYAGERVMLLFTNPTDVERLVEGGVKITSVNVGGMAFRQGKTQVNNAVSVDEKDIEAFKKLNARGIELEVRKVSTDPKLKMMDLISKIDK records total protein half-life in vivo of 4 h or higher.
result: Criterion met

query: Test whether the sequence MGFKCGIVGLPNVGKSTLFNALTKAGIEAANFPFCTIEPNTGVVPMPDPRLDQLAEIVKPQRTLPTTMEFVDIAGLVKGASKGEGLGNQFLTNIRETEAIGHVVRCFENDNIIHVSGKVNPADDIEVINTELALADLDTCERAIHRVQKKAKGGDKDAKAELAVLEKCLPQLENAGMLRALDLSAEEKAAIRYLSFLTLKPTMYIANVNEDGFENNPYLDQVREIAAKEGSVVVPVCAAVEADIAELDDEERDEFMQELGLEEPGLNRVIRAGYKLLNLQTYFTAGVKEVRAWTIPVGATAPQAAGKIHTDFEKGFIRAQTISFEDFITYKGEQGAKEAGKMRAEGKDYIVKDGDVMNFLFNV [P0ABU2] records total protein half-life in vivo of 4 h or higher.
result: Criterion not met

query: Test whether the sequence MKFELDTTDGRARRGRLVFDRGVVETPCFMPVGTYGTVKGMTPEEVEATGAQIILGNTFHLWLRPGQEIMKLHGDLHDFMQWKGPILTDSGGFQVFSLGDIRKITEQGVHFRNPINGDPIFLDPEKSMEIQYDLGSDIVMIFDECTPYPADWDYAKRSMEMSLRWAKRSRERFDSLGNKNALFGIIQGSVYEDLRDISVKGLVDIGFDGYAVGGLAVGEPKADMHRILEHVCPQIPADKPRYLMGVGKPEDLVEGVRRGIDMFDCVMPTRNARNGHLFVTDGVVKIRNAKYKSDTGPLDPECDCYTCRNYSRAYLHHLDRCNEILGARLNTIHNLRYYQRLMAGLRKAIEEGKLESFVTDFYQRQGREVPPLNVD [P0A847] records total protein half-life in vivo of 4 h or higher.
result: Criterion met

query: Test whether the sequence MTRPIQASLDLQALKQNLSIVRQAATHARVWSVVKANAYGHGIERIWSAIGATDGFALLNLEEAITLRERGWKGPILMLEGFFHAQDLEIYDQHRLTTCVHSNWQLKALQNARLKAPLDIYLKVNSGMNRLGFQPDRVLTVWQQLRAMANVGEMTLMSHFAEAEHPDGISGAMARIEQAAEGLECRRSLSNSAATLWHPEAHFDWVRPGIILYGASPSGQWRDIANTGLRPVMTLSSEIIGVQTLKAGERVGYGGRYTARDEQRIGIVAAGYADGYPRHAPTGTPVLVDGVRTMTVGTVSMDMLAVDLTPCPQAGIGTPVELWGKEIKIDDVAAAAGTVGYELMCALALRVPVVTV records total protein half-life in vivo of 4 h or higher.
result: Criterion not met

query: Test whether the sequence MQDRNFDDIAEKFSRNIYGTTKGQLRQAILWQDLDRVLAEMGPQKLRVLDAGGGEGQTAIKMAERGHQVILCDLSAQMIDRAKQAAEAKGVSDNMQFIHCAAQDVASHLETPVDLILFHAVLEWVADPRSVLQTLWSVLRPGGVLSLMFYNAHGLLMHNMVAGNFDYVQAGMPKKKKRTLSPDYPRDPAQVYLWLEEAGWQIMGKTGVRVFHDYLREKHQQRDCYEALLELETRYCRQEPYITLGRYIHVTARKPQSKDKV records total protein half-life in vivo of 4 h or higher.
result: Criterion met

----------
# test details: total protein half-life in vivo (active degradation + dilution); higher = more stable protein
# assay setup: E. coli NCM3722 delta-smpB; growth: N-lim chemostat; doubling time 6 h
Parameter threshold = 6 h. Response is yes when total protein half-life in vivo meets or exceeds it, else no.

query: Test whether the sequence MAMHLNENLDDNGEMHDINVTPFIDVMLVLLIIFMVAAPLATVDVKVNLPASTSTPQPRPEKPVYLSVKADNSMFIGNDPVTDETMITALNALTEGKKDTTIFFRADKTVDYETLMKVMDTLHQAGYLKIGLVGEETAKAK [P0ABV2] records total protein half-life in vivo of 6 h or higher.
result: no

query: Test whether the sequence MQRETVWLVEDEQGIADTLVYMLQQEGFAVEVFERGLPVLDKARKQVPDVMILDVGLPDISGFELCRQLLALHPALPVLFLTARSEEVDRLLGLEIGADDYVAKPFSPREVCARVRTLLRRVKKFSTPSPVIRIGHFELNEPAAQISWFDTPLALTRYEFLLLKTLLKSPGRVWSRQQLMDSVWEDAQDTYDRTVDTHIKTLRAKLRAINPDLSPINTHRGMGYSLRGL records total protein half-life in vivo of 6 h or higher.
result: no

query: Test whether the sequence MLVWLAEHLVKYYSGFNVFSYLTFRAIVSLLTALFISLWMGPRMIAHLQKLSFGQVVRNDGPESHFSKRGTPTMGGIMILTAIVISVLLWAYPSNPYVWCVLVVLVGYGVIGFVDDYRKVVRKDTKGLIARWKYFWMSVIALGVAFALYLAGKDTPATQLVVPFFKDVMPQLGLFYILLAYFVIVGTGNAVNLTDGLDGLAIMPTVFVAGGFALVAWATGNMNFASYLHIPYLRHAGELVIVCTAIVGAGLGFLWFNTYPAQVFMGDVGSLALGGALGIIAVLLRQEFLLVIMGGVFVVETLSVILQVGSFKLRGQRIFRMAPIHHHYELKGWPEPRVIVRFWIISLMLVLIGLATLKVR [P0A6W3] records total protein half-life in vivo of 6 h or higher.
result: yes

query: Test whether the sequence MEPLREIRNRLLNGWQLSKMHTFEVAARHQSFALAAEELSLSPSAVSHRINQLEEELGIQLFVRSHRKVELTHEGKRVYWALKSSLDTLNQEILDIKNQELSGTLTLYSRPSIAQCWLVPALGDFTRRYPSISLTVLTGNDNVNLQRAGIDLAIYFDDAPSAQLTHHFLMDEEILPVCSPEYAQRHALTNTVINLCHCTLLHDRQAWSNDSGTDEWHSWAQHYAVNLPTSSGIGFDRSDLAVIAAMNHIGVAMGRKRLVQKRLASGELVAPFGDMTVKCHQHYYITTLPGRQWPKIEAFIIWLREQVKTTS records total protein half-life in vivo of 6 h or higher.
result: yes

query: Test whether the sequence MLKKFRGMFSNDLSIDLGTANTLIYVKGQGIVLNEPSVVAIRQDRAGSPKSVAAVGHDAKQMLGRTPGNIAAIRPMKDGVIADFFVTEKMLQHFIKQVHSNSFMRPSPRVLVCVPVGATQVERRAIRESAQGAGAREVFLIEEPMAAAIGAGLPVSEATGSMVVDIGGGTTEVAVISLNGVVYSSSVRIGGDRFDEAIINYVRRNYGSLIGEATAERIKHEIGSAYPGDEVREIEVRGRNLAEGVPRGFTLNSNEILEALQEPLTGIVSAVMVALEQCPPELASDISERGMVLTGGGALLRNLDRLLMEETGIPVVVAEDPLTCVARGGGKALEMIDMHGGDLFSEE [P0A9X4] records total protein half-life in vivo of 6 h or higher.
result: no
